B1: TPR t1 (parent)
chain: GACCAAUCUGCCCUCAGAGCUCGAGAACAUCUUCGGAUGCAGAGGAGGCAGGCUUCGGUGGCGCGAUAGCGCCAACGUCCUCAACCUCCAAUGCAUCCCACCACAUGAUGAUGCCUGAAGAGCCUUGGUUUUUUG

- Variants of: B1
- TEST: polymerase ribozyme fitness, log enrichment relative to wild type (log ratio); higher = more active; in vitro selection for triplet polymerase activity
MEASURED PARAMETER: polymerase ribozyme fitness (log ratio)

Incoming: Return reported polymerase ribozyme fitness (log ratio); argument: A37U G58A A100C C114U U133G
Outgoing: -4.99

Incoming: Dear colleague, I am looking for the recorded polymerase ribozyme fitness (log ratio) of the following variant: A74C U78G C80U C115A
Outgoing: -2.23

Incoming: Which value of polymerase ribozyme fitness (log ratio) has been reported for G58C C72U A119U in the records?
Outgoing: -0.967

Incoming: Consider the variant shown here: U92G C97U G110U What is its recorded polymerase ribozyme fitness (log ratio)?
Outgoing: -5.82

Incoming: Please give the measured polymerase ribozyme fitness (log ratio) for this variant: U7A C53U
Outgoing: -0.0186

Incoming: I have this variant here, C53A G122U C123A , and I need its recorded polymerase ribozyme fitness (log ratio).
Outgoing: 0.198

Incoming: Using the record for C8G G44C C49A , report its polymerase ribozyme fitness (log ratio).
Outgoing: 0.0557

Incoming: Need polymerase ribozyme fitness (log ratio) of C15U A27U , thanks.
Outgoing: -4.81

Incoming: Looking for the measured polymerase ribozyme fitness (log ratio) of G10A C70G U87A C123A , can you help?
Outgoing: -4.27

Incoming: Fill in: polymerase ribozyme fitness (log ratio) of G45U C56U G122U U129C is ___
Outgoing: -1.59

Incoming: Recorded polymerase ribozyme fitness (log ratio) of A91U U112A G117C C123U U134A , please.
Outgoing: -2.54

Incoming: Please look up its polymerase ribozyme fitness (log ratio): C70U G110U
Outgoing: -2.59

Incoming: What does the record list as polymerase ribozyme fitness (log ratio) for G10A U96A ?
Outgoing: -0.657

Incoming: Which polymerase ribozyme fitness (log ratio) is reported for this variant? C3U G113C
Outgoing: -2.47

Incoming: Look up polymerase ribozyme fitness (log ratio): A2U C11U A27U G48U C64A C99G G113C
Outgoing: -6.93

Incoming: Need polymerase ribozyme fitness (log ratio), item G61U C99A C115A C124A
Outgoing: -4.46

Incoming: // polymerase ribozyme fitness (log ratio) lookup, key: G60C A74U C88G
Outgoing: -2.91

Incoming: Form field: reported polymerase ribozyme fitness (log ratio) of C8G A91G C115U
Outgoing: -0.682

Incoming: Entry C86A C123U C124G : reported polymerase ribozyme fitness (log ratio) = ?
Outgoing: 0.744

Incoming: Query (variant): C28U C86A ; field requested: polymerase ribozyme fitness (log ratio)
Outgoing: -2.8

Incoming: Which value of polymerase ribozyme fitness (log ratio) has been reported for A18G C56G A103C C115G U129G U130C in the records?
Outgoing: -6.47

Incoming: Please report the recorded polymerase ribozyme fitness (log ratio) for C12G U59G G60U A95U G110C .
Outgoing: -5.19

Incoming: // returns reported polymerase ribozyme fitness (log ratio) for input A84U G128A
Outgoing: -1.72

Incoming: Requested field: polymerase ribozyme fitness (log ratio). Item: A6C C8A G60A U87A
Outgoing: -0.0712

Incoming: Param item = U7G G35U G57U U87A A121G ; retrieve measured polymerase ribozyme fitness (log ratio).
Outgoing: -3.9

Incoming: What value of polymerase ribozyme fitness (log ratio) has been reported for the following variant? C12A G19C G58A C82G
Outgoing: -3.7

Incoming: Requested read-out: polymerase ribozyme fitness (log ratio). Entry: G17A A37U U54C C70U
Outgoing: -4.08

Incoming: Looking for the measured polymerase ribozyme fitness (log ratio) of G45U C53A G61C , can you help?
Outgoing: -5.95

Incoming: Using the record for C15U G36C U112C , report its polymerase ribozyme fitness (log ratio).
Outgoing: -1.24

Incoming: Please give the measured polymerase ribozyme fitness (log ratio) for this variant: G45A C85G
Outgoing: -3.89

Incoming: So what does the record say about polymerase ribozyme fitness (log ratio) for C34A C101U C104U U133A ?
Outgoing: -1.95

Incoming: Param item = A5U A29C U78G C101U ; retrieve measured polymerase ribozyme fitness (log ratio).
Outgoing: -3.29

Incoming: Tell me the measured polymerase ribozyme fitness (log ratio) of U9G G57U U96A U112A , please.
Outgoing: 0.146

Incoming: Need polymerase ribozyme fitness (log ratio), item C4A A18G C40A C114A A119G
Outgoing: -3.79

Incoming: Entry under review: G60A G122A U132C . Reported polymerase ribozyme fitness (log ratio)?
Outgoing: -0.379

Incoming: Return reported polymerase ribozyme fitness (log ratio); argument: U7G A84G U133G G135U
Outgoing: 0.51

Incoming: Which value of polymerase ribozyme fitness (log ratio) has been reported for A16G G44U G113C A119C G135A in the records?
Outgoing: -6.45

Incoming: Using the record for C56A C72U C82U C85U , report its polymerase ribozyme fitness (log ratio).
Outgoing: -1.52

Incoming: Fill in the blank: the reported polymerase ribozyme fitness (log ratio) of A5G G48C G63A G117C is ____.
Outgoing: -6.49

Incoming: Could you tell me which polymerase ribozyme fitness (log ratio) is on file for U7A C70A G113C ?
Outgoing: -4.53

Incoming: For G77A A91U , what is its reported polymerase ribozyme fitness (log ratio)?
Outgoing: -1.6

Incoming: What value of polymerase ribozyme fitness (log ratio) has been recorded for this entry: G107A G120C
Outgoing: -3.25

Incoming: Which value of polymerase ribozyme fitness (log ratio) has been reported for C12G U32A A37U in the records?
Outgoing: -3.65

Incoming: Look up polymerase ribozyme fitness (log ratio): G61A G77A A95U
Outgoing: -1.47

Incoming: Which polymerase ribozyme fitness (log ratio) value belongs to A95U G113A G127A ?
Outgoing: -2.73

Incoming: Would you kindly share the measured polymerase ribozyme fitness (log ratio) for A37U C53G U116A ?
Outgoing: -3.56
